- recordedConditions: mouse, microsomes
- Description: Metabolic stability in mouse liver microsomes assessed as clearance
parameter: CLH (µL/min/mg)

C#CCN(C(=O)Cc1ccc(C(F)(F)F)cc1C(F)(F)F)c1ccccc1 : 597

I: CN(C(=O)Cc1ccc(C(F)(F)F)cc1C(F)(F)F)c1ccc(F)cc1
II: O=C(Cc1ccc(C(F)(F)F)cc1C(F)(F)F)N(CC#Cc1ccccn1)c1ccccc1
Name the one with the greater CLH value, either I or II as given. // respond with label for picked entry
I
(I: 125 µL/min/mg, II: 64 µL/min/mg)

----------
- System: HCT-116
- protocolDetails: Antiproliferative activity against BRCA2 knock out human HCT-116 cells assessed as inhibition of cell growth incubated for 12 to 14 days with media replacement for every 3 or 4 days
- Assay type: functional, cell-based
parameter: IC50 (nM)
Write the answer as a number in nM, unit excluded.

Which IC50 value is on record for Nc1ccc(C#CCN(C(=O)Cc2ncc(C(F)(F)F)cc2C(F)(F)F)c2ccc(F)cc2)nn1 ?
320
